Recorded values, source ChEMBL document CHEMBL2331458.

Test: Cytotoxicity against african green monkey Vero cells
Type: cell-based
Conditions: chlorocebus sabaeus, read-out: LD50 (the source's name)
Non-standard residues stand in square brackets, D forms with d. Residues, ends and D or L forms follow the SMILES beside them. *: point of attachment. Oct7ynoyl(2R-Me) = C#CCCCC[C@@H](C)C(=O)*; NMeF = CN[C@@H](Cc1ccccc1)C(=O)O; Oct(7)enoyl = C=CCCCCCC(=O)*; Oct(7)ynoyl = C#CCCCCCC(=O)*; NMeV = CN[C@H](C(=O)O)C(C)C; Hept6ynoyl = C#CCCCCC(=O)*; NMeA = CN[C@@H](C)C(=O)O; X3 = C=CCCCCC(=O)*
readout-type: CC50 (µM)
Note: unit µM is implicit; provide only the numeric part.

Worked examples follow.
compound	units	CC50
C#CCCCCC(=O)N(C)[C@H](C(=O)N(C)[C@H](C(=O)N(C)[C@H](C(=O)N(C)[C@@H](C)C(=O)N(C)[C@@H](Cc1ccccc1)C(=O)OC)C(C)C)C(C)C)C(C)C (Hept6ynoyl-[NMeV][NMeV][NMeV][NMeA][NMeF]-OMe)	µM	41.4
C#CCCCCC(=O)N(C)[C@H](C(=O)N(C)[C@H](C(=O)N(C)[C@H](C(=O)N(C)[C@@H](C)C(=O)N(C)[C@@H](Cc1ccccc1)C(=O)O)C(C)C)C(C)C)C(C)C (Hept6ynoyl-[NMeV][NMeV][NMeV][NMeA][NMeF]-OH)	µM	281
C=CCCCCCC(=O)N(C)[C@H](C(=O)N(C)[C@H](C(=O)N(C)[C@H](C(=O)N(C)[C@@H](C)C(=O)N(C)[C@@H](Cc1ccccc1)C(=O)N(C)C)C(C)C)C(C)C)C(C)C ({Oct(7)enoyl}-[NMeV][NMeV][NMeV][NMeA][NMeF]-NMe2)	µM	23.8
C#CCCCCCC(=O)N(C)[C@H](C(=O)N(C)[C@H](C(=O)N(C)[C@H](C(=O)N(C)[C@@H](C)C(=O)N(C)[C@@H](Cc1ccccc1)C(=O)N(C)C)C(C)C)C(C)C)C(C)C ({Oct(7)ynoyl}-[NMeV][NMeV][NMeV][NMeA][NMeF]-NMe2)	µM	159
C#CCCCC[C@@H](C)C(=O)N(C)[C@H](C(=O)N(C)[C@H](C(=O)N[C@H](C(=O)N(C)[C@@H](C)C(=O)N(C)[C@@H](Cc1ccccc1)C(N)=O)C(C)C)C(C)C)C(C)C [ALMIRAMIDE B] ({Oct7ynoyl(2R-Me)}-[NMeV][NMeV]V[NMeA][NMeF]-NH2)	µM	52.3

Now consider the entry below.
Query block: Please give the measured CC50 for this compound: C=CCCCCC(=O)N(C)[C@H](C(=O)N(C)[C@H](C(=O)N(C)[C@H](C(=O)N(C)[C@@H](C)C(=O)N(C)[C@@H](Cc1ccccc1)C(=O)OC)C(C)C)C(C)C)C(C)C (X3-[NMeV][NMeV][NMeV][NMeA][NMeF]-OMe)
Result block: 24.7
